Could you please report measured Neut IC50 subtype B for the items listed next?
# measured.target: RSV F protein of recombinant mKate-RSV, subtype B (18537) (Respiratory syncytial virus subtype B …, UniProt P13843 26-574)
# protocol.details: cell-based or functional assay
Your answer is read as µg/mL, so omit the unit and give the number.

Query: Report measured Neut IC50 subtype B; entry is ADI-14509 (antibody, V domains shown) VH: QVQLVQSGSEVKKPGASVTLSCKASGYRFSNYGVSWVRQAPGQGLEWMGWISGYNGNIKYGNSLQGRVTLTTDTTTAYMEVTSLTSDDTAVYYCARDVPADGVHFMDVWGKGTTVTVSS VL: EIVLTQSPLSLPVTLGQPASISCRSSQSLVHSDTNTYLTWFQQRPGQSPRRLIYKVSHRDSGVPDRFSGSGSGTTFTLKIARVEAEDVGIYYCMEGSHWAPTFGQGTKVDIK
Response: 0.016

Query: Report measured Neut IC50 subtype B; entry is ADI-14519 (antibody, V domains shown) VH: EVQLVESGAEMKQPGASVKVSCEGFGNTLSERSIHWVRQAPGKGPEWMGDYDHEDKEAIYAPKFQGRLTISADMSTDIASLELNSLTSEDTAVYYCATVIAVGAYDIWGQGTLVTVSS VL: EIVLTQSPSSLYASIGDRVTITCRTGQSISRYLNWYQQKPGKAPKLLIYAASTLQSGVPSRFSGSGAGTDFTLTIRGLLPEDFATYFCQQSYIIPYTFGQGTKVEIK
Response: 3.43

Query: Report measured Neut IC50 subtype B; entry is ADI-14494 (antibody, V domains shown, full-length IgG (yeast-expressed); also called Antibody Number 55; Ab# 55) VH: EVQLVESGGGVVQPGRSLRLSCAASGFTFSDHAMYWVRQAPGKGLEWVALISFDGRNIYYADSVKGRFTISRDNSKNTLYLQMNSLRAEDTAVYYCARDQWLVPDYWGQGTLVTVSS VL: QSALTQPASVSGSPGQSITISCTGTSSDVGGYNYVSWYQQHPGNAPKLMIYEVSKRPSGVPDRFSGFKSGNTASLTVSGLQAEDEADYYCSSYAGSNSVFGTGTKVTVL
Response: 0.089
